# subjectOfTest: T-cell receptor (TCR)-CD3 interaction, human (TCR alpha chain TRAV4)
# methodSummary: potency of TCR-CD3 interaction inhibitors, dose response, biochemical, fluorescence, TAMRA-labeled TCR probe (AID 686957)
# measurementConditions: TCR-CD3 binding
Activity calls are given as the source filed them. The rule behind the calls is not given here.
property: IC50

COc1cccc(OCC(=O)NNC(=O)c2ccc3ccccc3c2O)c1	> 94.1 µM (inactive)
Cc1cc(C(=O)N/N=C/c2cc(Cl)cc([N+](=O)[O-])c2O)c2ccccc2n1	> 94.1 µM (inactive)
CCN(CC(=O)Nc1c(F)cccc1F)C(=O)/C=C/c1ccc2ccccc2n1	> 94.1 µM (inactive)

Please supply IC50 for each of the following items, keeping them in order.
1. O=C(O)CC(CCc1ccccc1)OC1OC(CO)C(O)C(O)C1O (stereo not drawn)
2. Cc1ccc(S(=O)(=O)N2CCC(C(=O)NNC(=O)c3ccccc3O)CC2)cc1
3. O=C(N/N=C/c1ccc(F)cc1)c1cc(-c2ccco2)nc2ccccc12
4. Cc1ccccc1C(=O)NNC(=S)NC(=O)c1cccnc1

1: > 94.1 µM (inactive); 2: > 94.1 µM (inactive); 3: > 94.1 µM (inactive); 4: > 94.1 µM (inactive)

Please supply IC50 for each of the following items, keeping them in order.
1. O=C(CNC(=O)c1cccc(Br)c1)N/N=C/c1cc(Br)cc(Br)c1O
2. C/C(=N\NC(=O)c1ccc(-c2ccccc2)cc1)C1C(=O)c2ccccc2C1=O
3. O=C(NNC(=S)NC(=O)c1cccc([N+](=O)[O-])c1)c1ccc(O)cc1

["> 94.1 µM (inactive)", "> 94.1 µM (inactive)", "> 94 µM (inactive)"]

Please supply IC50 for each of the following items, keeping them in order.
1. O=C(N/N=C/c1c(O)n(Cc2ccco2)c(=O)[nH]c1=O)c1ccccc1
2. O=[N+]([O-])c1cc(Br)c(O)c(/C=N/Nc2nnnn2-c2cccc3ccccc23)c1
3. Cc1ccccc1C(=O)Nc1cccc(C(=O)N/N=C/c2cc(Cl)cc([N+](=O)[O-])c2O)c1
4. O=C(N/N=C/c1cccnc1)c1cc(O)c(O)c(O)c1
5. O=Nc1[nH]c(=O)c(/C=C(\O)c2ccccc2)nc1NO
6. COc1ccc(NC(=O)CSc2sc3c(O)cc(=O)[nH]c3c2C#N)c(OC)c1
7. COc1cccc(C(=O)NNC(=O)c2ccc3ccccc3c2O)c1

["> 94.2 µM (inactive)", "> 94.1 µM (inactive)", "> 94.1 µM (inactive)", "> 94 µM (inactive)", "> 94.2 µM (inactive)", "> 94.1 µM (inactive)", "> 94.1 µM (inactive)"]

Please supply IC50 for each of the following items, keeping them in order.
1. CCC(=O)Nc1ccc2nc3c(=O)[nH]c(=S)[nH]c3nc2c1
2. COc1cc(Br)cc2cc(C(=O)N3CCN(C(=O)c4ccco4)CC3)c(=O)oc12
3. CCn1c(SCC(=O)c2ccc(O)c(O)c2)nnc1-c1ccccc1OC
4. O=C(NNC(=O)c1ccccc1O)c1ccccc1O
5. COc1ccc2nc(C)cc(SCC(=O)N/N=C/c3ccc(O)c(O)c3)c2c1
6. COc1cc([N+](=O)[O-])cc(/C=N/NC(=O)c2cc(C)nc3ccccc23)c1O

1. > 94.1 µM (inactive)
2. > 94.1 µM (inactive)
3. > 94.1 µM (inactive)
4. > 93.9 µM (inactive)
5. > 94.1 µM (inactive)
6. > 94.1 µM (inactive)
